# Tested on: Epidermal growth factor receptor (Homo sapiens), P00533 [L861Q]
# Sequence (P00533 whole entry L861Q): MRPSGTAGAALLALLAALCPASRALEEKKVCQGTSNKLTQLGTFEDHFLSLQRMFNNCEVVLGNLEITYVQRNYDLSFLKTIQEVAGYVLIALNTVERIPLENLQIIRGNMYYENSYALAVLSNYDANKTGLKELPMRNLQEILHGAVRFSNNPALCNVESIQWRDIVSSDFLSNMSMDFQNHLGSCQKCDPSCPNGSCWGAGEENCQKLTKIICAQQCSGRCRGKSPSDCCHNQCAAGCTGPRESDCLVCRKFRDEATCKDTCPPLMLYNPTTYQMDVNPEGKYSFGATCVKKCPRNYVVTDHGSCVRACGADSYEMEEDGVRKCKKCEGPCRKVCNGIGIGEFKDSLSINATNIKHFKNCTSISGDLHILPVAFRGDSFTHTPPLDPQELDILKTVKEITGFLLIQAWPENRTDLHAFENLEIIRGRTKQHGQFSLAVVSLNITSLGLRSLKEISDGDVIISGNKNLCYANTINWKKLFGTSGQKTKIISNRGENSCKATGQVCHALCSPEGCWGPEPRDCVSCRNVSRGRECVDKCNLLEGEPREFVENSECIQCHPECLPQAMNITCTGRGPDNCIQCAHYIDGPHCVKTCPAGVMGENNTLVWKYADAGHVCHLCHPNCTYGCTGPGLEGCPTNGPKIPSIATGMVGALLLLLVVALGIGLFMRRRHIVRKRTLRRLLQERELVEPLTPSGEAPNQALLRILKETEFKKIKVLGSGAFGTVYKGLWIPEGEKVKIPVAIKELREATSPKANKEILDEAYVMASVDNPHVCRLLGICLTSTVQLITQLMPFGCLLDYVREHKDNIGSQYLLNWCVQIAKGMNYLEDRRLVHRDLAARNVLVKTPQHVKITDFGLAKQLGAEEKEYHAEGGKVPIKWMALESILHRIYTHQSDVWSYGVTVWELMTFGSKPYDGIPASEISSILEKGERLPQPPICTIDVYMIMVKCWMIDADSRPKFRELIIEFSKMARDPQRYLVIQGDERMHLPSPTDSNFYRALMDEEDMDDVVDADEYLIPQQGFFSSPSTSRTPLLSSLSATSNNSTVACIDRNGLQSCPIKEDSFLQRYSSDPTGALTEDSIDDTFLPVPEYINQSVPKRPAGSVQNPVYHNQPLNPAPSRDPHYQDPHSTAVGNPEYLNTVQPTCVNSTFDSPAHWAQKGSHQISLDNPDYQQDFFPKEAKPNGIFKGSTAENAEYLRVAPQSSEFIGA
# protocol.conditions: at 1 µM
Here the recorded inhibition is given for each entry.
The reply should be a number in %, with the unit left off.

Please review the following examples before continuing.
compound=COc1cccc(-n2ncc3c(N/N=C/c4cccc(F)c4)ncnc32)c1 value_measured=7.42
compound=COc1ccc(COc2ccc(Cc3cnc(N)nc3N)cc2OC)cc1 value_measured=-1.95
compound=CCN1CCC(CC(=O)Nc2n[nH]c3nc(-c4cccs4)c(Br)cc23)CC1 value_measured=1.14
compound=CS(=O)(=O)CCNCc1ccc(-c2ccc3ncnc(Nc4ccc(OCc5ccccc5)c(Cl)c4)c3c2)o1 value_measured=87.6
compound=Nc1ncnc2occ(-c3ccc(NC(=O)Nc4cccc(C(F)(F)F)c4)cc3)c12 value_measured=3.15

Looking up "O=C1NC(=O)C(c2cccc(Cl)c2)=C1Nc1ccc(O)c(Cl)c1" , I found its inhibition recorded as -0.33

Per the records, this compound ( "O=C1Nc2ccc(C(=O)c3ccco3)cc2C1=Cc1cc(Cl)c(O)c(Cl)c1" ) has inhibition equal to 19.6

Notebook: "COc1cc2ncn(-c3cc(OCc4ccccc4C(F)(F)F)c(C(N)=O)s3)c2cc1OC" , inhibition read as 4.35

Looking up CC1=C(C(=O)Nc2ccc3[nH]ncc3c2)C(c2ccc(F)cc2)NC(=O)N1 (stereo not given) , I see its inhibition listed as 1.33

Entry "NS(=O)(=O)c1ccc(N/N=C2\C(=O)Nc3ccc(C(=O)NCCc4c[nH]cn4)cc32)cc1" — recorded inhibition = 3.48

* * *

# target.system: Tyrosine-protein kinase ZAP-70 (Homo sapiens) (UniProt P43403)
# Sequence (P43403 whole entry): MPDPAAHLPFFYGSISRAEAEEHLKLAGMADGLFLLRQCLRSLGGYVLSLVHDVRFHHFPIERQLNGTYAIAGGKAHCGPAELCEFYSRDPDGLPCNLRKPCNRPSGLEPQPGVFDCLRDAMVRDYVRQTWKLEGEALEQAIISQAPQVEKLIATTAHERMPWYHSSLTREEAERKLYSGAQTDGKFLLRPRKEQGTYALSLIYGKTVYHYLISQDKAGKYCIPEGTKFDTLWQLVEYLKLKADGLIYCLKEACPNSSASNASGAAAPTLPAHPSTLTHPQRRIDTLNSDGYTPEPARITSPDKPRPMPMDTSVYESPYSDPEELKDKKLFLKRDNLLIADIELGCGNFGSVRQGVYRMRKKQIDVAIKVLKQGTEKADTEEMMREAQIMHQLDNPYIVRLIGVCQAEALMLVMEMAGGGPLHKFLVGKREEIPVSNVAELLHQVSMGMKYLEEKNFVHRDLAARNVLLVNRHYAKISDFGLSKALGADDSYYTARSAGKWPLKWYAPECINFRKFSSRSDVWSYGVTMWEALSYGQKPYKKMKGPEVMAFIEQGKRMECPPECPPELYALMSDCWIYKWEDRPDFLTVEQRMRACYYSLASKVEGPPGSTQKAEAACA
# protocol.conditions: at 1 µM
# Description: GSK_PKIS: ZAP70 mean inhibition at 1 uM [Nanosyn]
measured.metric: inhibition (%)
Your answer should be a plain number; it is taken to be in %.

Before answering, review these 3 worked examples.
structure_smiles=COc1ccccc1Nc1ncc(-c2ccccc2)o1 unit_spec=% value_measured=4.36
structure_smiles=COc1cc(C=NNc2ncnc3c2cnn3-c2ccccc2)ccc1O unit_spec=% value_measured=9.72
structure_smiles=CCN1CCC(CC(=O)Nc2n[nH]c3nc(-c4cccs4)c(Br)cc23)CC1 unit_spec=% value_measured=-1.71

Consider "c1cnn2ncc(-c3ccnc(Nc4ccc5c(c4)OCCO5)n3)c2c1" . Its measured inhibition is 9.39

# inhibition of "COc1cc2ncn(-c3cc(OCc4ccccc4C(F)(F)F)c(C(N)=O)s3)c2cc1OC" = -1.32

inhibition measured on "[O-][S+]1CCN(Cc2ccc(-c3ccc4ncnc(Nc5ccc(OCc6ccccc6)c(F)c5)c4c3)o2)CC1" = 1.13

molecule "Fc1cccc(COc2ccc(Nc3ncnc4cc(-c5ccc[nH]5)sc34)cc2Cl)c1" , inhibition observed: -0.93

Just so you know, measured inhibition for "COc1ccc(-c2coc3ncnc(N)c23)cc1" came out at 4.55

The molecule identified as "CCn1c(-c2nonc2N)nc2c(C#CC(C)(C)O)nc(CN3CCCC3)cc21" registered its inhibition at 1.75

Looking up "COc1cc2ncn(-c3cc(O[C@H](C)c4ccccc4Cl)c(C(N)=O)s3)c2cc1OC" , I see its inhibition listed as 7.57

* * *

Measured inhibition, listed per entry for reference.
# System: Tyrosine-protein kinase ABL1 (Homo sapiens), P00519 [T315I]
# protocol.conditions: at 1 µM
Unit % implied. Number only.

compound=CN(C)c1cc2c(Nc3ccc4nc(Cc5ccccc5)[nH]c4c3)ncnc2cn1 measured_metric=inhibition unit_spec=% value_measured=4.5
compound=CS(=O)(=O)CCNCc1nc(-c2ccc3ncnc(Nc4ccc(F)c(Cl)c4)c3c2)cs1 measured_metric=inhibition unit_spec=% value_measured=6.43
compound=Fc1cccc(COc2ccc(Nc3ncnc4cc(-c5ccc[nH]5)sc34)cc2Cl)c1 measured_metric=inhibition unit_spec=% value_measured=5.41
compound=Cc1ccc(NC(=O)c2ccnc(N3CCCC3)c2)cc1-c1ccc(C(=O)NCC2CC2)cc1 measured_metric=inhibition unit_spec=% value_measured=2.61
compound=CC(=O)Nc1cccc(C#Cc2cncnc2Nc2ccc(OCc3cccc(F)c3)c(Cl)c2)n1 measured_metric=inhibition unit_spec=% value_measured=2.23

Notebook: CC1=C(C(=O)Nc2ccc3[nH]ncc3c2)C(c2ccc(F)cc2)NC(=O)N1 (centres undefined) , inhibition read as 2.66

Per the record, "NS(=O)(=O)c1cccc(-c2ccc3c(NC(=O)C4CC4)n[nH]c3c2)c1" has inhibition of 25.3

Per the record, "N#Cc1c(NC(=O)c2cccc3ccccc23)sc2c1CCCC2" has inhibition of 3.27

The recorded inhibition for entry "COc1cc2ncn(-c3cc(OCc4ccccc4C(F)(F)F)c(C(N)=O)s3)c2cc1OC" equals 14

Data provenance: ChEMBL document CHEMBL1961873
